MIC listing for selected molecules.
Tested on: Escherichia coli
protocol: Antibacterial activity against Escherichia coli NKE96 harboring deletion mutation in acrB protein
Assay type: functional
Quick reminder: number only, in µg/mL, skip the unit.

// below: answered molecules
{"molecule": "Cn1nnnc1SCC1=C(C(=O)O)N2C(=O)[C@@H](NC(=O)[C@H](O)c3ccccc3)[C@H]2SC1", "MIC [µg/mL]": 0.063}
{"molecule": "Cc1onc(-c2ccccc2Cl)c1C(=O)N[C@@H]1C(=O)N2[C@@H]1SC(C)(C)[C@@H]2C(=O)O", "MIC [µg/mL]": 1}
{"molecule": "Cc1onc(-c2ccccc2)c1C(=O)N[C@@H]1C(=O)N2[C@@H]1SC(C)(C)[C@@H]2C(=O)O", "MIC [µg/mL]": 1}

### Prompt Return the recorded MIC value; entry: CO[C@@H]1[C@@H](OC(N)=O)[C@@H](O)[C@H](Oc2ccc3c(O)c(NC(=O)c4ccc(O)c(CC=C(C)C)c4)c(=O)oc3c2C)OC1(C)C
### Response 4

### Prompt Return the recorded MIC value; entry: CC1(C)S[C@@H]2[C@H](NC(=O)C(C(=O)O)c3ccccc3)C(=O)N2[C@H]1C(=O)O (stereo partly specified)
### Response 1

### Prompt Return the recorded MIC value; entry: NC(=O)OC[C@@H]1[C@H](NC(=O)/C(=N\OCC(=O)O)c2csc(N)n2)C(=O)N1S(=O)(=O)O
### Response 0.031

### Prompt Return the recorded MIC value; entry: C[C@H](CCC(=O)O)[C@H]1CC[C@H]2[C@@H]3CC[C@@H]4C[C@H](O)CC[C@]4(C)[C@H]3C[C@H](O)[C@]12C
### Response 5000

### Prompt Return the recorded MIC value; entry: C[C@H]1[C@H](NC(=O)/C(=N\OC(C)(C)C(=O)O)c2csc(N)n2)C(=O)N1S(=O)(=O)O
### Response 0.063

###

log10 of MIC listing for selected molecules.
Test system: Escherichia coli
protocol: Antibacterial activity against Escherichia coli NKE159 harboring deletion mutation in acrB, cpxAR protein and plasmid expressing nlpE gene
Format: functional
The figures below represent log10 of MIC, where MIC is stated in µg/mL.

// below: answered molecules
{"molecule": "Cc1onc(-c2ccccc2Cl)c1C(=O)N[C@@H]1C(=O)N2[C@@H]1SC(C)(C)[C@@H]2C(=O)O [CLOXACILLIN]", "log10 of MIC": 0.00}
{"molecule": "Cc1onc(-c2ccccc2)c1C(=O)N[C@@H]1C(=O)N2[C@@H]1SC(C)(C)[C@@H]2C(=O)O [OXACILLIN]", "log10 of MIC": -0.30}
{"molecule": "Cn1nnnc1SCC1=C(C(=O)O)N2C(=O)[C@@H](NC(=O)[C@H](O)c3ccccc3)[C@H]2SC1 [CEFAMANDOLE]", "log10 of MIC": -1.20}
{"molecule": "NC[C@H]1O[C@H](O[C@H]2[C@H](O)[C@@H](O[C@H]3O[C@H](CO)[C@@H](O)[C@H](N)[C@H]3O)[C@H](N)C[C@@H]2N)[C@H](O)[C@@H](O)[C@@H]1O [KANAMYCIN]", "log10 of MIC": 0.00}
{"molecule": "CCOc1ccc2ccccc2c1C(=O)N[C@@H]1C(=O)N2[C@@H]1SC(C)(C)[C@@H]2C(=O)O [NAFCILLIN]", "log10 of MIC": 0.00}

### Prompt Using Escherichia coli as the test system, report measured log10 of MIC of CO[C@@H]1[C@@H](OC(N)=O)[C@@H](O)[C@H](Oc2ccc3c(O)c(NC(=O)c4ccc(O)c(CC=C(C)C)c4)c(=O)oc3c2C)OC1(C)C [NOVOBIOCIN] .
### Response 0.60

### Prompt Using Escherichia coli as the test system, report measured log10 of MIC of NC(=O)OC[C@@H]1[C@H](NC(=O)/C(=N\OCC(=O)O)c2csc(N)n2)C(=O)N1S(=O)(=O)O [CARUMONAM] .
### Response -1.51
